Test system: human red blood cells
measurementDescription: Hemolytic assay
Assay type: cell-based
appliedConditions: red cells of human, 100
Peptide text beside a SMILES is read from it. * marks the point of attachment. Fmoc = O=C(OCC1c2ccccc2-c2ccccc21)*; Acm = CC(=O)NC*
Reported % Hemolysis 100 μg/ml values for the following molecules.
Field note: include the unit after the figure.

[[record]]
molecule = "CSCC[C@H](NC(=O)[C@H](CCC(=O)O)NC(=O)[C@H](Cc1c[nH]c2ccccc12)NC(=O)[C@H](CCC(N)=O)NC(=O)[C@H](Cc1c[nH]c2ccccc12)NC(=O)[C@H](CCCNC(=N)N)NC(=O)[C@H](CC(C)C)NC(=O)[C@H](CSCNC(C)=O)NC(=O)[C@H](CCCCN)NC(=O)[C@@H](N)CCCNC(=N)N)C(=O)N[C@@H](CCCNC(=N)N)C(=O)N[C@@H](CCCCN)C(=O)N[C@H](C(=O)NCC(=O)NCC(=O)O)C(C)C [LFM R1, W8] (H-RKC(Acm)LRWQWEMRKVGG-OH; N-terminus assumed)"
measuredmetric = "% Hemolysis 100 μg/ml"
reportedmeasurement = "3.48%"


# ---- query molecule ----
So, CSCC[C@H](NC(=O)[C@H](CCCNC(=N)N)NC(=O)[C@H](Cc1c[nH]c2ccccc12)NC(=O)[C@H](CCC(N)=O)NC(=O)[C@H](Cc1c[nH]c2ccccc12)NC(=O)[C@H](CCCNC(=N)N)NC(=O)[C@H](CCCNC(=N)N)NC(=O)OCC1c2ccccc2-c2ccccc21)C(=O)N[C@@H](CCCCN)C(=O)N[C@@H](CCCCN)C(=O)N[C@@H](CC(C)C)C(=O)O [LFB 20-29 FMOC] (Fmoc-RRWQWRMKKL-OH) ? Its % Hemolysis 100 μg/ml was 28.2%
